Reported values of IC50 (read off the curve) for individual entries
measured.on: recombinant human KLK5 (human) (UniProt Q9Y337)
Sequence (Q9Y337 67-293): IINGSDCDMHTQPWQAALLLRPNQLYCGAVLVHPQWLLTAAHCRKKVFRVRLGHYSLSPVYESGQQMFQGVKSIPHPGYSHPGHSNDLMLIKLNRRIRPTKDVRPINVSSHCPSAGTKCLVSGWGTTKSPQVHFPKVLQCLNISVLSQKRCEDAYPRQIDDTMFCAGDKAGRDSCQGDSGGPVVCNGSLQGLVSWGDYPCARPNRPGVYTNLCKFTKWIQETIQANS
experiment.notes: Kiapp assay curve, 0.500 nM KLK5, Z-VPR-pNA
Lab book: enter the figure in nM, no units written.

* 9B6 (antibody, V domains shown) VH: QSVKESEGGLFKPTDNLTLTCTVSGFSLSNYGVTWVRQAPGNGLEYIGFIGSGGSAYYASWAKSRSTITRNTNLNTVTLKMTSLTAADTATYFCARDDVGGGKSLDIWGPGTLVTVSS VL: NIVMTQTPASVEVAVGGTVVIKCQASQNIGDYLSWYQQKPGQRPKLLIYSASTLASGVPSRFKGSGSGTQFTLTISDLECADAATYYCHQDYTSNDVENTFGGGTEVVVK | 0.2

Let us move to another entry and its IC50 (read off the curve).
Incoming: Request the reported IC50 (read off the curve) associated with 10H3 (antibody, V domains shown) VH: QSVKESEGGLIKPTDTLTLTCTVSGFSLSTFAINWVRQAPGNGLEWIGAIGRGGSAYYASWAKSRSTITKNTNLNTVTLKMTRPTAADTATYFCARENAGSGWGELDIWGPGTLVTVSS VL: AYEMTQTPASVEVAVGGTVTINCQASESISSDLAWYQQKPGQRPKLLIYAASTLASGVPSRFKGSGSGTEFTLSISGVQCADAATYYCQQGYTWNNVDNVFGGGTEVVVK
Outgoing: 0.4
